Source: patent US8952024B2

# System: morningglory (Ipomoea coccinea)
# assaySummary: Test B pre-/postemergence plant response
# Assay type: in vivo
# assayConditions: Postemergence, 62 g ai/ha; scale 0 (no effect) to 100 (complete control); 13 to 15 days
# reported Plant response rating, Morningglory; entries follow
Returns: the value as a bare number; no unit string appended.

querySmiles | Plant response rating, Morningglory
Cc1ccc(C)c(-n2c(-c3ccccc3)ncc(C(=O)C3=C(O)CCCC3=O)c2=O)c1 | 70
CCn1c(-c2ccccc2)ncc(C(=O)C2=C(O)CCCC2=O)c1=O | 80
CCCCc1ncc(C(=O)C2=C(O)CCCC2=O)c(=O)n1-c1ccccc1C | 15

Consider the additional compound presented here.
Q) Recorded Plant response rating, Morningglory for O=C1CCCC(O)=C1C(=O)c1cnc(-c2ccccc2)n(-c2ccccc2Br)c1=O , please?
A) 70

---

# Test system: pigweed (Amaranthus retroflexus)
# assaySummary: Test A pre-/postemergence plant response
# Assay type: in vivo
# assayConditions: Postemergence, 500 g ai/ha; visual injury, 0 to 100 scale (0 no effect, 100 complete control), approx. ten days
endpointLabel: Pigweed plant response rating
Returns: the value as a bare number; no unit string appended.

Check out these entries, answers already filled in.
compound | endpointLabel | reported
O=C(C1=C(O)C2CCC(C2)C1=O)c1cnc(-c2ccccc2)n(C2CCCCCCCCCCC2)c1=O (centres unmarked) | Pigweed plant response rating | 90
Cc1cccc(-c2ncc(C(=O)C3=C(O)CCCC3=O)c(=O)n2-c2cc(F)ccc2C)c1 | Pigweed plant response rating | 80
Cc1ccc(-n2c(-c3cc(F)cc(F)c3)ncc(C(=O)C3=C(O)CCCC3=O)c2=O)cc1 | Pigweed plant response rating | 100
O=C(C1=C(O)C2CCC(C2)C1=O)c1cnc(-c2ccccc2)n(CC2CCCO2)c1=O (centres unmarked) | Pigweed plant response rating | 100
O=C1CCCC(O)=C1C(=O)c1cnc(-c2ccccc2)n(C2CCCCCCC2)c1=O | Pigweed plant response rating | 100

Q) Recorded Pigweed plant response rating for CCCn1c(-c2ccc3c(c2)OCCO3)ncc(C(=O)C2=C(O)C3CCC(C3)C2=O)c1=O (centres unmarked) , please?
A) 80

Q) Recorded Pigweed plant response rating for O=C1CCCC(O)=C1C(=O)c1cnc(-c2ccsc2)n(C2CCOCC2)c1=O , please?
A) 100

Q) Recorded Pigweed plant response rating for O=C1CCCC(O)=C1C(=O)c1cnc(C2CC2)n(C2CCCCC2)c1=O , please?
A) 100

---

# reported Plant response rating, Chickweed; entries follow
# Test system: chickweed (Stellaria media)
# assaySummary: Test B postemergence plant response
# Format: in vivo
# assayConditions: Postemergence, 125 g ai/ha; scale 0 to 100 (0 no effect, 100 complete control)
Returns: the value as a bare number; no unit string appended.

Check out these entries, answers already filled in.
compound | targetEntity | Plant response rating, Chickweed
CCn1c(-c2cc(F)cc(F)c2)ncc(C(=O)C2=C(O)CCCC2=O)c1=O | chickweed (Stellaria media) | 80
O=C1CCCC(O)=C1C(=O)c1cnc(-c2cccs2)n(CC2CCCO2)c1=O (stereo not shown) | chickweed (Stellaria media) | 98
Cc1ccc(-n2c(-c3cc(F)cc(F)c3)ncc(C(=O)C3=C(O)CCCC3=O)c2=O)cc1 | chickweed (Stellaria media) | 100
CCCn1c(-c2cccc(OC)c2)ncc(C(=O)C2=C(O)CCCC2=O)c1=O | chickweed (Stellaria media) | 95

Q) Request body: readout Plant response rating, Chickweed, system chickweed (Stellaria media), query O=C1CCCC(O)=C1C(=O)c1cnc(-c2ccsc2)n(C2CCOCC2)c1=O . Return the value.
A) 100

Q) Request body: readout Plant response rating, Chickweed, system chickweed (Stellaria media), query CCCc1ncc(C(=O)C2=C(O)CCCC2=O)c(=O)n1-c1ccccc1 . Return the value.
A) 100

Q) Request body: readout Plant response rating, Chickweed, system chickweed (Stellaria media), query CCCn1c(-c2ccccc2)ncc(C(=O)C2=C(O)C3CCC(C3)C2=O)c1=O (stereo not shown) . Return the value.
A) 85

---

# Test system: woolly cupgrass (Eriochloa villosa)
# assaySummary: Test B pre-/postemergence plant response
# Format: in vivo
# assayConditions: 62 g ai/ha, postemergence; 0 is no effect, 100 is complete control; 13 to 15 days
# reported Cupgrass, Woolly plant response rating (0 to 100 scale); entries follow
Returns: the value as a bare number; no unit string appended.

querySmiles | targetEntity | reported
COCCOCCn1c(-c2ccccc2)ncc(C(=O)C2=C(O)CCCC2=O)c1=O | woolly cupgrass (Eriochloa villosa) | 85

Q) Recorded Cupgrass, Woolly plant response rating (0 to 100 scale) for CCCn1c(-c2cccc(F)c2)ncc(C(=O)C2=C(O)CCCC2=O)c1=O , please?
A) 75

Q) Recorded Cupgrass, Woolly plant response rating (0 to 100 scale) for O=C1CCCC(O)=C1C(=O)c1cnc(C2CC2)n(-c2ccccc2)c1=O , please?
A) 75

Q) Recorded Cupgrass, Woolly plant response rating (0 to 100 scale) for COCCCn1c(-c2cccc(F)c2)ncc(C(=O)C2=C(O)CCCC2=O)c1=O , please?
A) 75

Q) Recorded Cupgrass, Woolly plant response rating (0 to 100 scale) for CCCn1c(-c2ccsc2)ncc(C(=O)C2=C(O)CCCC2=O)c1=O , please?
A) 45

Q) Recorded Cupgrass, Woolly plant response rating (0 to 100 scale) for O=C1CCCC(O)=C1C(=O)c1cnc(-c2ccccc2)n(C2CCOCC2)c1=O , please?
A) 85

---

# Tested on: morningglory (pitted morningglory, Ipomoea lacunosa)
# assaySummary: Test D pre-/postemergence plant response
# Format: in vivo
# assayConditions: Postemergence, 16 g ai/ha; scale 0 to 100
# Source text: […] Treated plants and controls were maintained in a greenhouse for 14 to 21 days, after which time all species were visually evaluated and compared to controls. […]
Classify: TRUE when Plant response rating, Morningglory is strictly less than 40; FALSE when Plant response rating, Morningglory is not.

Here's what some known entries look like.
querySmiles | category
O=C1CCCC(O)=C1C(=O)c1cnc(-c2cccs2)n(-c2ccccc2)c1=O | FALSE
Cc1c(F)cccc1-n1c(-c2ccccc2)ncc(C(=O)C2=C(O)CCCC2=O)c1=O | TRUE
Cc1ccc(F)c(-n2c(-c3ccccc3)ncc(C(=O)C3=C(O)CCCC3=O)c2=O)c1 | TRUE

Now take the following compound into account.
Q) Please determine if O=C1CCCC(O)=C1C(=O)c1cnc(-c2cccnc2)n(-c2ccccc2)c1=O is below 40 in terms of Plant response rating, Morningglory.
A) FALSE

---

# System: bermudagrass (Cynodon dactylon)
# assaySummary: Test D pre-/postemergence plant response
# Assay type: in vivo
# assayConditions: Preemergence, 31 g ai/ha; scale 0 to 100 (0 no effect, 100 complete control)
# reported Plant response rating, Bermudagrass; entries follow
Returns: the value as a bare number; no unit string appended.

Check out these entries, answers already filled in.
compound | Plant response rating, Bermudagrass
O=C1CCCC(O)=C1C(=O)c1cnc(C2CC2)n(-c2ccccc2)c1=O [Compound 87] | 65
Cc1ccc(F)c(-n2c(-c3ccccc3)ncc(C(=O)C3=C(O)CCCC3=O)c2=O)c1 [Compound 51] | 0

Q) Recorded Plant response rating, Bermudagrass for Cc1ccc(Cl)cc1-n1c(-c2ccccc2)ncc(C(=O)C2=C(O)CCCC2=O)c1=O [Compound 52] , please?
A) 70

Q) Recorded Plant response rating, Bermudagrass for O=C1CCCC(O)=C1C(=O)c1cnc(-c2cccnc2)n(-c2ccccc2)c1=O [Compound 113] , please?
A) 50

Q) Recorded Plant response rating, Bermudagrass for O=C1CCCC(O)=C1C(=O)c1cnc(-c2ccccc2)n(C2CCCCC2)c1=O [Compound 128] , please?
A) 0

Q) Recorded Plant response rating, Bermudagrass for Cc1c(F)cccc1-n1c(-c2ccccc2)ncc(C(=O)C2=C(O)CCCC2=O)c1=O [Compound 47] , please?
A) 25

---

# Tested on: large crabgrass (Digitaria sanguinalis)
# assaySummary: Test D pre-/postemergence plant response
# Assay type: in vivo
# assayConditions: Preemergence, 16 g ai/ha; scale 0 to 100, 0 no effect, 100 complete control
# reported Plant response rating, Crabgrass, Large; entries follow
Returns: the value as a bare number; no unit string appended.

Check out these entries, answers already filled in.
querySmiles | targetEntity | Plant response rating, Crabgrass, Large
O=C1CCCC(O)=C1C(=O)c1cnc(-c2cccnc2)n(-c2ccccc2)c1=O | large crabgrass (Digitaria sanguinalis) | 20
Cc1c(F)cccc1-n1c(-c2ccccc2)ncc(C(=O)C2=C(O)CCCC2=O)c1=O | large crabgrass (Digitaria sanguinalis) | 0
O=C1CCCC(O)=C1C(=O)c1cnc(-c2ccccc2)n(C2CCCCC2)c1=O | large crabgrass (Digitaria sanguinalis) | 0

Consider the additional compound presented here.
Q) Request body: readout Plant response rating, Crabgrass, Large, system large crabgrass (Digitaria sanguinalis), query Cc1ccc(F)c(-n2c(-c3ccccc3)ncc(C(=O)C3=C(O)CCCC3=O)c2=O)c1 . Return the value.
A) 0
